So I've got a bunch of molecules here, and I need their IC50 values.
# assayedTarget: human recombinant LPA2 expressed in CHO cells (Homo sapiens)
# Construct: expressed in transfected cells; host or cells: CHO cells (CHO-hLPA2 cell line)
# Sequence (Q9HBW0 whole entry): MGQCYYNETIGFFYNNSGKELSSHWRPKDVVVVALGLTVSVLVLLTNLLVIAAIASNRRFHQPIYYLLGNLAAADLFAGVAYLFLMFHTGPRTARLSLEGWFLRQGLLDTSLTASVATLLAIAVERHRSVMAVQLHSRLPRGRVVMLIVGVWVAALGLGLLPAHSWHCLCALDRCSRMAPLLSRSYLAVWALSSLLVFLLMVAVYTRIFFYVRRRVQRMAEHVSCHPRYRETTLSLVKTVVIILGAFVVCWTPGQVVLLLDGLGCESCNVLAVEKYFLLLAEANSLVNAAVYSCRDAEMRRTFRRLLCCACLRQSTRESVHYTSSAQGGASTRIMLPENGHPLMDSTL
# measurementDescription: FLIPR calcium mobilization assay, LPA2 antagonism in CHO-hLPA2 cells
# Format: cell-based
# studyConditions: CHO-hLPA2 cells, inhibition of LPA EC80 Ca2+ response, 30 min pre-incubation; read-out: LPA2 IC50
# Description: The effectiveness of compounds of the present invention as LPA2 antagonist can be determined at the human recombinant LPA2 expressed in CHO cells, using a FLIPR assay in 384 well format. […] The raw data (peak height expressed as relative fluorescence units) are normalized and transformed into “percent of inhibition”. […]

Check out these entries, answers already filled in.
| structureNotation | recordedEndpoint | observedMeasurement |
| --- | --- | --- |
| COC(=O)Nc1nc(C)c(S(=O)(=O)N2CCN(C[C@H](C)Nc3ncnc4c(-c5ccc(F)c(Cl)n5)cccc34)CC2)s1 | IC50 | 0.01 to 0.1 µM |
| CC(=O)N1CCc2cc(S(=O)(=O)N3CCN(C[C@H](C)Nc4ncnc5c(-c6cn(C)nc6C(F)(F)F)cccc45)CC3)ccc21 | IC50 | < 0.01 µM |
| COC(=O)Nc1nc(C)c(S(=O)(=O)N2CCN(C[C@H](C)Nc3ncnc4c(-c5c[nH]nc5C(F)(F)F)cccc34)CC2)s1 | IC50 | < 0.01 µM |
| CC(=O)N1CCc2cc(S(=O)(=O)N3CCN(C[C@H](C)Nc4ncnc5c(-c6ccc(C)nc6)cccc45)CC3)ccc21 | IC50 | < 0.01 µM |
| COC(=O)Nc1nc(C)c(S(=O)(=O)N2CCN(C[C@H](C)Nc3ncnc4c(-c5cncc(N)c5)cccc34)CC2)s1 | IC50 | < 0.01 µM |

Continue with the next molecule.
// query IC50 value for entry COC(=O)Nc1nc(C)c(S(=O)(=O)N2CCN(C[C@H](C)Nc3ncnc4c(-c5cn(C)nc5C(F)(F)F)cccc34)CC2)s1
< 0.01 µM

====

# assayedTarget: human recombinant LPA2 expressed in CHO cells (Homo sapiens)
# Construct: expressed in transfected cells; host or cells: CHO cells (CHO-hLPA2 cell line)
# measurementDescription: FLIPR calcium mobilization assay, LPA2 antagonism in CHO-hLPA2 cells
# Type: cell-based
# studyConditions: comparative compound, same in vitro assay; stated inactive on receptor LPA2; read-out: IC50 on LPA2 receptor
pIC50: −log10 of the molar value.
recordedEndpoint: pIC50

// query pIC50 value for entry COC(=O)Nc1nc(C)c(S(=O)(=O)N2CCN(C[C@H](C)Nc3ncnc4ncccc34)CC2)s1 [comparative Example A, reference compound]
< 5.52

====

# assayedTarget: human recombinant LPA2 expressed in CHO cells (Homo sapiens)
# Construct: expressed in transfected cells; host or cells: CHO cells (CHO-hLPA2 cell line)
# measurementDescription: FLIPR calcium mobilization assay, LPA2 antagonism in CHO-hLPA2 cells
# Type: cell-based
# studyConditions: CHO-hLPA2 cells, inhibition of LPA EC80 Ca2+ response, 30 min pre-incubation; read-out: LPA2 IC50
So I've got a bunch of molecules here, and I need their IC50 values.

Check out these entries, answers already filled in.
| molecule | observedMeasurement |
| --- | --- |
| Cc1cc(-c2ccc(S(=O)(=O)N3CCN(CCNc4ncnc5c(-c6cccnc6)cccc45)CC3)s2)on1 [Example 19] | < 1 µM |
| COCC(=O)Nc1ncc(S(=O)(=O)N2CCN(C[C@H](C)Nc3ncnc4c(-c5cccc(CN(C)C)c5)cccc34)CC2)s1 [Example 81] | < 0.01 µM |
| Cc1cc(-c2ccc(S(=O)(=O)N3CCN(C[C@H](C)Nc4ncnc5c(-c6sc(C)nc6C)cccc45)CC3)s2)on1 [Example 7] | < 0.01 µM |

Continue with the next molecule.
// query IC50 value for entry Cc1ccc(-c2cccc3c(N[C@@H](C)CN4CCN(S(=O)(=O)c5ccc6[nH]c(=O)sc6c5)CC4)ncnc23)cn1 [Example 78]
0.01 to 0.1 µM
